system: H1650(EGFR mut); experiment: MTT growth inhibition (in vitro cytotoxicity), H1650(EGFR mut); type: cell-based; conditions: Homo sapiens, NCI-H1650, average IC50
pIC50: −log10 of the molar value.
Label t when pIC50 >= 5; otherwise f.

- SMILES ENTRY: "c1ccc(C(Cc2ccc3ccccc3n2)Cc2ccc3ccccc3n2)cc1"
  ASSIGNED CATEGORY: "f"
- SMILES ENTRY: "COc1ccc2[nH]c3c(c2c1)CCN=C3CCCC1=NCCc2c1[nH]c1ccc(OC)cc21"
  ASSIGNED CATEGORY: "t"
- SMILES ENTRY: "COc1cc(C(Cc2nccc3ccccc23)Cc2nccc3ccccc23)ccc1O"
  ASSIGNED CATEGORY: "f"
- SMILES ENTRY: "COc1ccc2nc(CC(Cc3ccc4cc(OC)ccc4n3)c3ccccc3)ccc2c1"
  ASSIGNED CATEGORY: "f"
- SMILES ENTRY: "COc1ccc2[nH]c3c(c2c1)CCN=C3CCCCC1=NCCc2c1[nH]c1ccc(OC)cc21"
  ASSIGNED CATEGORY: "f"
- SMILES ENTRY: "COc1cc(C(Cc2ccc3ccccc3n2)Cc2ccc3ccccc3n2)ccc1O"
  ASSIGNED CATEGORY: "f"
- SMILES ENTRY: "COc1ccc2c3c([nH]c2c1)C(CC(CC1=NCCc2c1[nH]c1cc(OC)ccc21)c1ccc(O)c(OC)c1)=NCC3"
  ASSIGNED CATEGORY: "t"
- SMILES ENTRY: "COc1ccc2[nH]c3c(c2c1)CCN=C3CC(C)(C)CC1=NCCc2c1[nH]c1ccc(OC)cc21"
  ASSIGNED CATEGORY: "t"

----------
test system: KMM-1; test: MTT growth inhibition (in vitro cytotoxicity), KMM-1; format: cell-based; conditions: Homo sapiens, average IC50

- MOLECULE: "COc1ccc2c3c([nH]c2c1)C(CC(CC1=NCCc2c1[nH]c1cc(OC)ccc21)c1ccc(O)c(OC)c1)=NCC3 [Compound 5]"
  SUBJECT OF TEST: "KMM-1"
  IC50 (µM): 3.48
- MOLECULE: "COc1ccc2c3c([nH]c2c1)C(CC(CC1NCCc2c1[nH]c1cc(OC)ccc21)c1ccc(O)c(OC)c1)NCC3 (stereo not drawn) [Compound 10]"
  SUBJECT OF TEST: "KMM-1"
  IC50 (µM): 2.53
- MOLECULE: "c1ccc(C(Cc2ccc3ccccc3n2)Cc2ccc3ccccc3n2)cc1 [Compound 17]"
  SUBJECT OF TEST: "KMM-1"
  IC50 (µM): 7.99

----------
test system: human cancer cell lines; assay: Cancer cell growth inhibition, summary over cell lines; type: cell-based; settings: cell lines not specified, read-out: cancer cell growth inhibition (IC50)
PARAMETER MEASURED: IC50

- COMPOUND: "COc1ccc2c3c([nH]c2c1)C(CC(CC1=NCCc2c1[nH]c1cc(OC)ccc21)c1ccc(O)c(OC)c1)=NCC3"
  SUBJECT OF TEST: "human cancer cell lines"
  RESULT: "4 to 7 µM"
- COMPOUND: "COc1ccc2c3c([nH]c2c1)C(CC(CC1NCCc2c1[nH]c1cc(OC)ccc21)c1ccccc1)NCC3 (stereo not drawn)"
  SUBJECT OF TEST: "human cancer cell lines"
  RESULT: "2 to 4 µM"
- COMPOUND: "COc1ccc2c3c([nH]c2c1)C(CC(CC1=NCCc2c1[nH]c1cc(OC)ccc21)c1ccccc1)=NCC3"
  SUBJECT OF TEST: "human cancer cell lines"
  RESULT: "4 to 7 µM"
- COMPOUND: "COc1cc(C=O)ccc1O [vanillin, reference compound]"
  SUBJECT OF TEST: "human cancer cell lines"
  RESULT: "40 µM"
- COMPOUND: "COc1ccc2[nH]c3c(c2c1)CCN=C3CCCC1=NCCc2c1[nH]c1ccc(OC)cc21"
  SUBJECT OF TEST: "human cancer cell lines"
  RESULT: "0.6 to 2 µM"
- COMPOUND: "COc1ccc2[nH]c3c(c2c1)CCN=C3CC(C)(C)CC1=NCCc2c1[nH]c1ccc(OC)cc21"
  SUBJECT OF TEST: "human cancer cell lines"
  RESULT: "0.6 to 2 µM"

----------
test system: MIA Paca-2; test: MTT growth inhibition (in vitro cytotoxicity), MIA Paca-2; format: cell-based; details: Homo sapiens, average IC50
Reported IC50 values follow for various molecules

- MOLECULE: "COc1cc(C(Cc2nccc3ccccc23)Cc2nccc3ccccc23)ccc1O"
  IC50 [µM]: 19.7
- MOLECULE: "COc1ccc2[nH]c3c(c2c1)CCN=C3CCCCC1=NCCc2c1[nH]c1ccc(OC)cc21"
  IC50 [µM]: 6.58
- MOLECULE: "COc1ccc2[nH]c3c(c2c1)CCN=C3CCCC1=NCCc2c1[nH]c1ccc(OC)cc21"
  IC50 [µM]: 4.54
- MOLECULE: "COc1cc(C(Cc2ccc3ccccc3n2)Cc2ccc3ccccc3n2)ccc1O"
  IC50 [µM]: 24.5
- MOLECULE: "COc1ccc2c3c([nH]c2c1)C(CC(CC1NCCc2c1[nH]c1cc(OC)ccc21)c1ccccc1)NCC3 (centres unmarked)"
  IC50 [µM]: 2.25
- MOLECULE: "COc1ccc2c3c([nH]c2c1)C(CC(CC1=NCCc2c1[nH]c1cc(OC)ccc21)c1ccccc1)=NCC3"
  IC50 [µM]: 1.85
- MOLECULE: "c1ccc(C(Cc2ccc3ccccc3n2)Cc2ccc3ccccc3n2)cc1"
  IC50 [µM]: 13.3
- MOLECULE: "COc1ccc2nc(CC(Cc3ccc4cc(OC)ccc4n3)c3ccccc3)ccc2c1"
  IC50 [µM]: 21.9
